Experiment: Tmax in Sprague-Dawley rat at 3 mg/kg, po administered as MCT suspension
Type: ADME, organism-based
Details: in vivo
quantity.measured: Tmax (h)

[[record]]
smiles = "COc1ncc(NC(=O)Nc2cnc3ccc(C#N)cc3c2N2CCOC[C@@H]2C)cc1Cl"
data_value = 8


----------
Molecular target: Mucosa-associated lymphoid tissue lymphoma translocation protein 1 (Homo sapiens)
Assay: Allosteric inhibition of human wild-type […] MALT1 (329 to 824 residues) protease activity using Ac-Leu-Arg-Ser-Arg Rh110-dPro as substrate preincubated for 60 mins followed by substrate addition and measured after 60 mins by fluorescence assay
pIC50: −log10 of the molar value.
quantity.measured: pIC50

[[record]]
compound = "COc1ccc(N(C)C(=O)NC2COc3ccc(Br)cc3C2)cc1Cl (stereo unspecified)"
data_value = "< 4.00"

[[record]]
compound = "COc1ccc(NC(=O)Nc2cnc3ccc(Br)cc3c2Cl)cc1Cl"
data_value = 7.54

[[record]]
compound = "COc1ccc(NC(=O)N(C)C2COc3ccc(Br)cc3C2)cc1Cl (stereo unspecified)"
data_value = "< 4.00"

[[record]]
compound = "COc1ccc(CC(=O)NC2COc3ccccc3C2)cc1Cl (stereo unspecified)"
data_value = "< 4.00"

[[record]]
compound = "COc1ccc(NC(=O)N[C@@H]2COc3ccccc3C2)cc1Cl"
data_value = "< 4.00"

[[record]]
compound = "COc1ccc(NC(=O)NC2COc3ccc(F)cc3C2)cc1Cl (racemic)"
data_value = 7.24


----------
Each record here notes measured solubility thermodynamic.
Test: Thermodynamic solubility of the compound at pH 6.8
Type: physicochemical
Settings: buffer, read-out: Therm_solubility
quantity.measured: solubility thermodynamic (µg/mL)

[[record]]
smiles = "C[C@H]1COC[C@H](C)N1c1c(NC(=O)Nc2ccnc(C(F)(F)F)c2)cnc2cc(Cl)nn12"
reading_unit = "µg/mL"
data_value = 4

[[record]]
smiles = "COc1ncc(NC(=O)Nc2cnc3ccc(C#N)cc3c2N2CCOC[C@@H]2C)cc1Cl"
reading_unit = "µg/mL"
data_value = 0.2


----------
Molecular target: Mucosa-associated lymphoid tissue lymphoma translocation protein 1 (Homo sapiens, UniProt Q9UDY8)
Sequence (Q9UDY8 whole entry): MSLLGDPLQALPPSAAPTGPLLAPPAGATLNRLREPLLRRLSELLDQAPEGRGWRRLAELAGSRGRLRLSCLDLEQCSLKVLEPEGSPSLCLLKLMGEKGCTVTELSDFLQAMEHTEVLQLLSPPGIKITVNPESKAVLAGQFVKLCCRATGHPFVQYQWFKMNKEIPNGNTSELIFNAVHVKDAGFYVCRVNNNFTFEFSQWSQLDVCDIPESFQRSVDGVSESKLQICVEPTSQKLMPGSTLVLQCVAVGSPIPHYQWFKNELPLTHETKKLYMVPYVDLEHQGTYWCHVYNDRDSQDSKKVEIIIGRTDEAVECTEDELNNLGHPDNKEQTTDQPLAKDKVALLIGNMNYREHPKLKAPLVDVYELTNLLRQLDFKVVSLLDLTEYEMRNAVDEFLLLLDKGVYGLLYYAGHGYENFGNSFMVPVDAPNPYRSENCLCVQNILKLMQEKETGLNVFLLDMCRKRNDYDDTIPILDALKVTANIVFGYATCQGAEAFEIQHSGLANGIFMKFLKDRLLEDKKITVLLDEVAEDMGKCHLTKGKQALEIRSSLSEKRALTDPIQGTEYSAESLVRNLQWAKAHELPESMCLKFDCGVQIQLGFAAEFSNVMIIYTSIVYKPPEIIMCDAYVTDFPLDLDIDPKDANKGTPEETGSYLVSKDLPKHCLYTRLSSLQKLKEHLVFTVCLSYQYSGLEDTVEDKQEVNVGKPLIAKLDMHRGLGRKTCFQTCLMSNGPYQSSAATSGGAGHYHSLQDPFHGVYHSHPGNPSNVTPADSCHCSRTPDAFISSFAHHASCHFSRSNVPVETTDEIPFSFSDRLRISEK
Test: Allosteric inhibition of human wild-type […] MALT1 (329 to 824 residues) protease activity using Ac-Leu-Arg-Ser-Arg Rh110-dPro as substrate preincubated for 60 mins followed by substrate addition and measured after 60 mins by fluorescence assay
quantity.measured: IC50

[[record]]
compound = "COc1ncc(NC(=O)Nc2cnc3ccc(C#N)cc3c2N2CCOC[C@@H]2C)cc1Cl"
quantity_measured = "IC50"
data_value = "5 nM"

[[record]]
compound = "CC1(C)COCCN1c1c(NC(=O)Nc2ccnc(C(F)(F)F)c2)cnc2cc(Cl)nn12"
quantity_measured = "IC50"
data_value = "6 nM"

[[record]]
compound = "COc1ncc(NC(=O)Nc2cnc3ccc(F)cc3c2N(C)C2CCCN(C)C2)cc1Cl (stereo not given)"
quantity_measured = "IC50"
data_value = "70 nM"

[[record]]
compound = "COc1ncc(NC(=O)Nc2cnc3cc(Cl)nn3c2N2[C@@H](C)COC[C@@H]2C)cc1Cl"
quantity_measured = "IC50"
data_value = "6 nM"

[[record]]
compound = "C[C@H]1COC[C@H](C)N1c1c(NC(=O)Nc2ccnc(C(F)(F)F)c2)cnc2cc(Cl)nn12"
quantity_measured = "IC50"
data_value = "9 nM"

